test: Lethal dose in mice (LD50) (following i.v. dosing); conditions: mouse, in vivo, iv
I'd appreciate it if you marked entries criterion met when LD50 is lower than 20 mg/kg and criterion not met when it is not.

Is 20 mg/kg strictly greater than the compound's reported LD50? compound: C=C(c1c(C)ccc(Cl)c1OCC(O)CNC(C)(C)C)n1ccnc1 (stereo not given) criterion not met

Is 20 mg/kg strictly greater than the compound's reported LD50? compound: C=C(c1c(C)c(C)cc(Cl)c1OCC(O)CNC(C)(C)C)n1ccnc1 (stereo not given) criterion met

Is 20 mg/kg strictly greater than the compound's reported LD50? compound: C=C(c1cc(C)cc(C)c1OCC(O)CNC(C)(C)C)n1ccnc1 (stereo not given) criterion met

Is 20 mg/kg strictly greater than the compound's reported LD50? compound: C=C(c1cc(Cl)cc(C)c1OCC(O)CNC(C)C)n1ccnc1 (stereo not given) criterion not met

###

Assign pA2 to each entry below.
target: Adrenergic receptor beta (Cavia porcellus); test: Beta adrenergic receptor blocking activity measured by the chronotropic effect was determined 1 hr after pretreatment of the right atria in guinea pig
Please respond with just the number, no unit label.

GET /values?readout=pA2&item= C=C(c1ccccc1OCC(O)CNC(C)(C)C)n1ccnc1C (stereo not given) 6.97

GET /values?readout=pA2&item= "C=C(c1c(Cl)ccc(Cl)c1OC[C@@H](O)CNC(C)C)n1ccnc1.Cl" 5.08

GET /values?readout=pA2&item= C=C(c1ccccc1OCC(O)CNC(C)(C)C)n1ccnc1 (stereo not given) 7.69

GET /values?readout=pA2&item= C=C(c1cccc(C)c1OCC(O)CNC(C)(C)C)n1ccnc1 (stereo not given) 5.81

GET /values?readout=pA2&item= C=C(c1cc(Cl)ccc1OCC(O)CNC(C)C)n1cccn1 (stereo not given) 6.76

###

target: Adrenergic receptor beta (Cavia porcellus); experiment: Beta adrenergic receptor blocking activity measured by the inotropic effect was determined 1 hr after pretreament of the right atria in guinea pig
Assign pA2 to each entry below.

GET /values?readout=pA2&item= C=C(c1cc(Cl)cc(Cl)c1OCC(O)CNC(C)(C)C)n1ccnc1 (stereo not given) 6.51

GET /values?readout=pA2&item= C=C(c1cc(C)cc(C)c1OCC(O)CNC(C)C)n1ccnc1 (stereo not given) 6.31

GET /values?readout=pA2&item= C/C=C(\c1ccccc1OCC(O)CNC(C)C)n1ccnc1 (stereo not given) 6.76

GET /values?readout=pA2&item= "C=C(c1c(Cl)ccc(Cl)c1OC[C@@H](O)CNC(C)C)n1ccnc1.Cl" 5.05

GET /values?readout=pA2&item= C=C(c1ccccc1OCC(O)CN(C)C)n1ccnc1 (stereo not given) 6.12

GET /values?readout=pA2&item= C=C(c1ccccc1OCC(O)CNC(C)C)n1cccn1 (stereo not given) 7.75

GET /values?readout=pA2&item= C=C(c1cc(Cl)ccc1OCC(O)CNC(C)C)n1cccn1 (stereo not given) 6.74

GET /values?readout=pA2&item= C=C(c1ccccc1OCC(O)CN1CCCC1)n1ccnc1 (stereo not given) 6.15

GET /values?readout=pA2&item= C=C(c1ccccc1OCC(O)CNC(C)C)n1cnc(C(=O)OCC)c1C (stereo not given) 6.37

GET /values?readout=pA2&item= C=C(c1c(Cl)cc(Cl)cc1OCC(O)CNC(C)C)n1ccnc1 (stereo not given) 6.27

###

molecular target: Adrenergic receptor beta (Cavia porcellus); assay: Beta adrenergic receptor blocking activity measured by the inotropic effect was determined 1 hr after pretreament of the right atria in guinea pig
Observable: pA2
Please respond with just the number, no unit label.

GET /values?readout=pA2&item= CC(C)NCC(O)COc1ccccc1C(C)n1ccnc1 (centres undefined) 6.83

GET /values?readout=pA2&item= C=C(c1cc(Cl)ccc1OCC(O)CNC(C)(C)C)n1cccn1 (centres undefined) 6.99

GET /values?readout=pA2&item= C=C(c1cccc(OC)c1OCC(O)CNC(C)C)n1ccnc1 (centres undefined) 6.99

GET /values?readout=pA2&item= C=C(c1ccccc1OCC(O)CNC(C)(C)C)n1cnc2ccccc21 (centres undefined) 7.08
